The reported numbers originate from the METLIN SMRT retention time set (Domingo-Almenara et al. 2019).

Test Summary: gradient 5% acetonitrile 3 min, to 50% in 2 min, to 85% in 15 min, held 3 min, 100 µL/min
Assay Setup: column: Zorbax Extend-C18 2.1 x 50 mm; eluents: water / acetonitrile, 0.1% formic acid
Endpoint Name: RP-LC retention time

compound="O=C1COc2cc(S(=O)(=O)N3CCCC3C(=O)NCCN3CCCC3)c(Cl)cc2N1 (stereo not given)" endpoint_name="RP-LC retention time" value="567 s"
compound=COC(=O)c1ccc2c(=O)n(CCc3ccccc3)c(N3CCC(C(N)=O)CC3)nc2c1 endpoint_name="RP-LC retention time" value="774 s"
compound="CC(C)C(=O)Nc1cc(-c2ccccc2)nn(C(C)C(=O)Nc2ccccc2Cl)c1=O (stereo not given)" endpoint_name="RP-LC retention time" value="1170 s"
compound="CCCOC(=O)C1=C(C)NC2=C(C(=O)C(C(=O)OC)C(C)C2)C1c1ccccc1F (stereo not given)" endpoint_name="RP-LC retention time" value="954 s"
compound="O=C(NC1CC1)C1CCc2sc(C(=O)N3CCCCCC3)cc2C1 (stereo not given)" endpoint_name="RP-LC retention time" value="736 s"
